Experiment: amyloid nucleation score (Sup35N fusion, yeast selection) (log enrichment); library NNK3; higher = more nucleation; inactive = no reads after selection;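 further: zero at mode of non-aggregating sequences after 7 days selection at 30°C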
ASSAY_ENDPOINT: amyloid nucleation score

Field: example entries. Status: answers known.
LLFAYLMRMRISVHIWVRGT | inactive
SLCVVGP | -0.107
DLGRNYIVNGIL | inactive
NWDRTIMCMYY | 2.08
YVFVCIRPPLVGVHEFNSRS | -0.089

Form field amyloid nucleation score, entry KNEVIYHWLRRRVNSRRTFR : inactive

Form field amyloid nucleation score, entry CPVTIYSVYNTASVKALFLR : inactive

Form field amyloid nucleation score, entry HFMFGYGCTRSGQTRSPGFN : 1.88

Form field amyloid nucleation score, entry LLHFVHNSSSMLVRRREETG : 0.262

Form field amyloid nucleation score, entry GFIQRKNQRGVKKCRESYYY : inactive

Form field amyloid nucleation score, entry ISALKQSS : inactive

Form field amyloid nucleation score, entry SIGNCIFYTMAVFQWSTYTL : inactive

Form field amyloid nucleation score, entry ASCQSSIVFRTGSSLATLCD : inactive

----------
Parameter amyloid nucleation score: see the listing below.
Assay: amyloid nucleation score (Sup35N fusion, yeast selection) (log enrichment); library NNK1; higher = more nucleation; inactive = no reads after selection
Give only the figure.

Field: example entries. Status: answers known.
VNCSRYRGESASDNWSGALL | -0.186
THLVAPRSWLFIGPCRTKAS | 0.385
SLGVDYDTGSVVYVAGCNCR | 0.009
TCLISCRLPDKGHGSVT | -0.069
TSTSIGRVQCLYDSWRRTAW | 0.73
EISVWVEALFSLYFRNWISG | 0.229
APKITGQTSNVGTRA | -0.028
RYYGLFVYVARIYSALRSCK | -0.104
IDYRIDCVCFLCSVREEAYR | 7.28
RKNAFDFDAS | -0.099

Form field amyloid nucleation score, entry VHIFCSTTCFFMNFMLIQNK : -0.045

Form field amyloid nucleation score, entry SYTSRPYFTNIYVDYWFMVC : 6.22

----------
Parameter amyloid nucleation score: see the listing below.
Test: amyloid nucleation score (Sup35N fusion, yeast selection) (log enrichment); library NNK1; higher = more nucleation; inactive = no reads after selection
Give only the figure.

GSGINVRDITFIL | 4.42

Form field amyloid nucleation score, entry KGKPYFAEMLHIMSFVWSSD : 1.3

Form field amyloid nucleation score, entry CSLNLNCVS : 3.76

Form field amyloid nucleation score, entry SNDTLS : 0.265

Form field amyloid nucleation score, entry NGLWVGHLVLDGIYSA : -0.564

Form field amyloid nucleation score, entry AHSANSKIVSFRMLDDYRPD : 1.1

Form field amyloid nucleation score, entry RDYSFGGLMPGCDGEHIVS : -0.138

Form field amyloid nucleation score, entry SNIFNMGY : 0.187

Form field amyloid nucleation score, entry SLSTGIAFINLAACVYSKLT : 2.85

Form field amyloid nucleation score, entry RCCALTYPLFKHLG : 0.573

Form field amyloid nucleation score, entry CVIDRWGDIYSNHEGNRSLL : -0.025

Form field amyloid nucleation score, entry LTVVTAAFRATMVEHIL : -0.368

Form field amyloid nucleation score, entry SYKNVGRV : 0.273

----------
Test: amyloid nucleation score (Sup35N fusion, yeast selection) (log enrichment); library NNK2; higher = more nucleation; inactive = no reads after selection
ASSAY_ENDPOINT: amyloid nucleation score

LASLSDFPFYLTWWS | -0.157
FYVNSWPSPLGTYWRGYNGR | 0.106
ICTGVSTHIEPRPLTELCFR | 2.6
RYIMHL | -0.105
LTHSRNLRKVRTNRNNETHV | 0.005

Form field amyloid nucleation score, entry SNRRKSAGDSFVRWMCCLT : 2.61

Form field amyloid nucleation score, entry YVATKYMRLNTCNLFWGGLT : 6.37

Form field amyloid nucleation score, entry RVSIVCWIFVDSREHFFSVK : -0.818

Form field amyloid nucleation score, entry NAFSKSIFKNMTQQKDQLSE : inactive

Form field amyloid nucleation score, entry IFSLDFSGYVSLYLQKMNVL : 0.815

Form field amyloid nucleation score, entry EMICVYSNFMKWVWSSFQTV : -0.832

Form field amyloid nucleation score, entry RVLADVKRYRECQTRCRDAW : 1.04

Form field amyloid nucleation score, entry MIIVTAY : -0.073

----------
Assay: amyloid nucleation score (Sup35N fusion, yeast selection) (log enrichment); library NNK3; higher = more nucleation; inactive = no reads after selection
ASSAY_ENDPOINT: amyloid nucleation score

Field: example entries. Status: answers known.
YYTGFTIFLLRVWLLAGVGS | inactive
MFLSALDNGLLVNGYVICVC | inactive
KKDQTMVES | inactive
FQFNILNSVSGLCICYDSGH | 3.41
AILYTRHG | 0.082

Form field amyloid nucleation score, entry RKLWLMCYS : inactive

Form field amyloid nucleation score, entry DRNRCIVYTHGEISRLQ : inactive

Form field amyloid nucleation score, entry CSIARLFWFFPVMPSCIG : -0.236

Form field amyloid nucleation score, entry PLGSLHSATQRYVSRLGILS : inactive

Form field amyloid nucleation score, entry CPLVFDMILVSLCSNGAGLI : inactive

----------
Parameter amyloid nucleation score: see the listing below.
Assay: amyloid nucleation score (Sup35N fusion, yeast selection) (log enrichment); library NNK1; higher = more nucleation; inactive = no reads after selection
Give only the figure.

Field: example entries. Status: answers known.
NLFVKFLNSRRCINFMTMFD | -0.01
FIFWGDLFWV | -0.992
FSMGSVWTEERQLCWVPMVW | 1.11
HMWYFRYGHEWSRTYNKCIK | -0.02
MYHLSGVSYMFSLCSDCRRL | 8.12

Form field amyloid nucleation score, entry SVRTCFNRYLKQVRVWSYAG : -0.165

Form field amyloid nucleation score, entry TFASTS : 0.002

Form field amyloid nucleation score, entry RSDISASHRSVGLLNSHRTD : -0.58

----------
Experiment: amyloid nucleation score (Sup35N fusion, yeast selection) (log enrichment); library NNK2; higher = more nucleation; inactive = no reads after selection
# binarize amyloid nucleation score: threshold 0.7 inclusive, high side true, low side false

KFTVDFYLTACTGTKIDFMV | true
CCDRSAPAT | false
KMSMSFSWWE | true
NLLNKTWFVSILIKHTCMYS | false
FPLDIKGKWDVGNMEGKVVE | false

Say whether SWFSSNFFFY shows amyloid nucleation score of 0.7 or more.
true

Say whether VVSKLFRDFYWRMLKSNMGW shows amyloid nucleation score of 0.7 or more.
false

Say whether LCIYFICSGLVRRLEWVG shows amyloid nucleation score of 0.7 or more.
false

Say whether MGLSWLSLLLKCRCQWACKL shows amyloid nucleation score of 0.7 or more.
false

Say whether NDFTFLMFDM shows amyloid nucleation score of 0.7 or more.
true

Say whether EFNLLRYSVETNIISEKKLV shows amyloid nucleation score of 0.7 or more.
false

Say whether TVGIVGFHVVVRELWVGVRR shows amyloid nucleation score of 0.7 or more.
true

Say whether ISRWTSIVFKRLNGRDKEMK shows amyloid nucleation score of 0.7 or more.
true

Say whether QILWYWGREVFSRRDRFCSV shows amyloid nucleation score of 0.7 or more.
true

Say whether MYPIWNQCSSWNEVVLNGCR shows amyloid nucleation score of 0.7 or more.
false

Say whether GARASQRCESVGLPLEYVSR shows amyloid nucleation score of 0.7 or more.
true

Say whether NWVSIEHNYIFVLRYPENAS shows amyloid nucleation score of 0.7 or more.
true

Say whether NWIPYVWGWIALIVGSDF shows amyloid nucleation score of 0.7 or more.
false

Say whether RFFYSCQASYPCSMVEMSVC shows amyloid nucleation score of 0.7 or more.
false

Say whether AISDGPET shows amyloid nucleation score of 0.7 or more.
true

Say whether AMLLANALIWNRICGDRRLA shows amyloid nucleation score of 0.7 or more.
true

Say whether FVKYNCIFNASLTCHK shows amyloid nucleation score of 0.7 or more.
true

Say whether LFADGFGSRINDCNTVSMF shows amyloid nucleation score of 0.7 or more.
true

Say whether ITCTFFFSVSVLSTSVDSMY shows amyloid nucleation score of 0.7 or more.
false

Say whether LNPIFVWFHSC shows amyloid nucleation score of 0.7 or more.
true

Say whether RSILSCEGPDSLLEAFNEQI shows amyloid nucleation score of 0.7 or more.
false

Say whether GMVCVP shows amyloid nucleation score of 0.7 or more.
true

Say whether SWAQRCDGGMYMRDCWLMGS shows amyloid nucleation score of 0.7 or more.
false

Say whether IFSISNFAITVSNTLTV shows amyloid nucleation score of 0.7 or more.
true

----------
Parameter amyloid nucleation score: see the listing below.
Assay: amyloid nucleation score (Sup35N fusion, yeast selection) (log enrichment); library NNK1; higher = more nucleation; inactive = no reads after selection
Give only the figure.

Form field amyloid nucleation score, entry YLVAVVIGSIPAPSRMYSVA : 0.904
